Reference source: paper PMC3188589

Substrate: O=C(O)C(=O)CC(O)C(=O)O
Assay: purified protein
Format: biochemical, Homo sapiens
Details: racemic HOG, 100 mM TRIS pH 8.5, 37°C, aldol cleavage
outcomeMeasure: Km
Be sure to follow the number with its unit.

protein	resultValue
human HOGA (hHOGA) (Homo sapiens; S198A) (protein, His-tag (WT, Y140F) cleavable by PreScission leaving GPH, 33,097 Da tag-free; S77, N78 and S198 mutants as MBP fusion, MBP cleaved; tetramer) ASGEGKKVDIAGIYPPVTTPFTATAEVDYGKLEENLHKLGTFPFRGFVVQGSNGEFPFLTSSERLEVVSRVRQAMPKNRLLLAGSGCESTQATVEMTVSMAQVGADAAMVVTPCYYRGRMSSAALIHHYTKVADLSPIPVVLYSVPANTGLDLPVDAVVTLSQHPNIVGMKDAGGDVTRIGLIVHKTRKQDFQVLAGSAGFLMASYALGAVGGVCALANVLGAQVCQLERLCCTGQWEDAQKLQHRLIEPNAAVTRRFGIPGLKKIMDWFGYYGGPCRAPLQELSPAEEEALRMDFTSNGWL	44 ± 2 µM
human HOGA (hHOGA) (Homo sapiens) (protein, His-tag (WT, Y140F) cleavable by PreScission leaving GPH, 33,097 Da tag-free; S77, N78 and S198 mutants as MBP fusion, MBP cleaved; tetramer) ASGEGKKVDIAGIYPPVTTPFTATAEVDYGKLEENLHKLGTFPFRGFVVQGSNGEFPFLTSSERLEVVSRVRQAMPKNRLLLAGSGCESTQATVEMTVSMAQVGADAAMVVTPCYYRGRMSSAALIHHYTKVADLSPIPVVLYSVPANTGLDLPVDAVVTLSQHPNIVGMKDSGGDVTRIGLIVHKTRKQDFQVLAGSAGFLMASYALGAVGGVCALANVLGAQVCQLERLCCTGQWEDAQKLQHRLIEPNAAVTRRFGIPGLKKIMDWFGYYGGPCRAPLQELSPAEEEALRMDFTSNGWL	11 ± 1 µM
human HOGA (hHOGA) (Homo sapiens; Y140F) (protein, His-tag (WT, Y140F) cleavable by PreScission leaving GPH, 33,097 Da tag-free; S77, N78 and S198 mutants as MBP fusion, MBP cleaved; tetramer) ASGEGKKVDIAGIYPPVTTPFTATAEVDYGKLEENLHKLGTFPFRGFVVQGSNGEFPFLTSSERLEVVSRVRQAMPKNRLLLAGSGCESTQATVEMTVSMAQVGADAAMVVTPCFYRGRMSSAALIHHYTKVADLSPIPVVLYSVPANTGLDLPVDAVVTLSQHPNIVGMKDSGGDVTRIGLIVHKTRKQDFQVLAGSAGFLMASYALGAVGGVCALANVLGAQVCQLERLCCTGQWEDAQKLQHRLIEPNAAVTRRFGIPGLKKIMDWFGYYGGPCRAPLQELSPAEEEALRMDFTSNGWL	8 ± 1 µM

Query string: # return recorded Km for input human HOGA (hHOGA) (Homo sapiens; N78Q) (protein, His-tag (WT, Y140F) cleavable by PreScission leaving GPH, 33,097 Da tag-free; S77, N78 and S198 mutants as MBP fusion, MBP cleaved; tetramer) ASGEGKKVDIAGIYPPVTTPFTATAEVDYGKLEENLHKLGTFPFRGFVVQGSQGEFPFLTSSERLEVVSRVRQAMPKNRLLLAGSGCESTQATVEMTVSMAQVGADAAMVVTPCYYRGRMSSAALIHHYTKVADLSPIPVVLYSVPANTGLDLPVDAVVTLSQHPNIVGMKDSGGDVTRIGLIVHKTRKQDFQVLAGSAGFLMASYALGAVGGVCALANVLGAQVCQLERLCCTGQWEDAQKLQHRLIEPNAAVTRRFGIPGLKKIMDWFGYYGGPCRAPLQELSPAEEEALRMDFTSNGWL
Result string: 281 ± 14 µM
